# measuredOn: RING1B-BMI1 (Homo sapiens, UniProt Q99496)
# Sequence (Q99496 1-336): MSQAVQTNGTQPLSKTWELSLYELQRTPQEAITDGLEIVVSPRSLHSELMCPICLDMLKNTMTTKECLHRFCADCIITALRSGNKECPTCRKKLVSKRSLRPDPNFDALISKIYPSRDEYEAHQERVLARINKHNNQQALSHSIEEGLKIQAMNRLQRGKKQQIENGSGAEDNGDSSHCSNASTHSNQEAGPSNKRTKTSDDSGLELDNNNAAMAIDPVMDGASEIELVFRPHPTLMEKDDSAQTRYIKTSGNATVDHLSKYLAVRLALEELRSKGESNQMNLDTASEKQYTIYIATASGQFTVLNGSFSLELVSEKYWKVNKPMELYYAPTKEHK
# Sequence (P35226 1-326 partner): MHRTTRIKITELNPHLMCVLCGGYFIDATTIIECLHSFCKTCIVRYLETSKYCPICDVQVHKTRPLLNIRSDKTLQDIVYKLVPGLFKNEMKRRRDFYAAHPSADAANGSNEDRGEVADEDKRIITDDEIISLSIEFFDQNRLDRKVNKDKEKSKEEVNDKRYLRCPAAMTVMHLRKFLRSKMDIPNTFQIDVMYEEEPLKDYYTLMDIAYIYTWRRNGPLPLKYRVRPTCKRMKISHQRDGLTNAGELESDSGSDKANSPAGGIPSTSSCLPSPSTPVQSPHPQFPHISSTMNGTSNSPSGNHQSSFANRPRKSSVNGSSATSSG
# assaySummary: KD classes of Table A (direct binding to Ring1B-Bmi1)
# condition: class given in Table A
Provide the reported Kd of each item.

q: Requested field: Kd. Item: COc1cc(-c2[nH]c(C(=O)O)c(-c3c(Cl)ccc4[nH]ccc34)c2C(C)C)c2cc[nH]c2c1 [compound 11]
a: < 20 µM

q: Also need CCc1c(C(=O)O)[nH]c(-c2cccc3[nH]ccc23)c1CC [compound 112] , thanks.
a: > 100 µM

q: Another: Cc1ccc(-c2ccc(C(=O)O)[nH]2)cc1 [compound 151]
a: > 100 µM

q: Further, for COc1cc(-c2c(C(=O)O)[nH]c(-c3cc(F)cc4[nH]ccc34)c2C(C)C)c2c(C)c[nH]c2c1 [compound 183] ?
a: < 20 µM

q: // repeat for CC(C)CCn1ccc2c(-c3ccc(C(=O)O)[nH]3)cccc21 [compound 124] and report
a: > 100 µM

q: Would you mind doing CCOc1ccccc1-c1ccc(C(=O)O)[nH]1 [compound 140] as well?
a: > 100 µM

q: Also need O=C(O)c1ccc(-c2ccc(C(F)(F)F)cc2)[nH]1 [compound 150] , thanks.
a: > 100 µM

q: Can you handle CC(C)c1c(-c2cc(F)cc3[nH]ccc23)[nH]c(C(=O)O)c1-c1cc(Oc2nccs2)cc2[nH]ccc12 [compound 201] next?
a: < 20 µM

q: Now try CCn1ccc2c(-c3ccc(C(=O)O)[nH]3)cccc21 [compound 122] .
a: > 100 µM

q: Lookup CCc1cccc(-c2ccc(C(=O)O)[nH]2)c1 [compound 129]
a: > 100 µM

q: Now give it for CC(C)c1c(-c2cc(F)cc3[nH]ccc23)[nH]c(C(=O)O)c1-c1ccnc2[nH]c(-c3cccc(Cl)c3)cc12 [compound 253] too.
a: < 20 µM

q: Quick one: CCC(C)c1c(-c2cc(F)cc3[nH]ccc23)[nH]c(C(=O)O)c1-c1cc(OC)cc2[nH]c(CO)cc12 (centres unmarked) [compound 195]
a: < 20 µM

q: Repeat for the following molecule: COc1cc(-c2c(C(=O)O)[nH]c(-c3cc(F)cc4[nH]ccc34)c2CC(C)C)c2cc[nH]c2c1 [compound 174]
a: < 20 µM

q: Same thing, different molecule: CC(C)c1c(-c2cc(F)cc3[nH]ccc23)[nH]c(C(=O)O)c1-c1cccc2c1ccn2CCNS(C)(=O)=O [compound 265]
a: < 20 µM

q: Lookup CC(C)c1c(-c2cc(F)cc3[nH]ccc23)[nH]c(C(=O)O)c1-c1ccnc2[nH]c(C3=CCNCC3)cc12 [compound 255]
a: < 20 µM

q: Now give it for COc1cc(Cl)c(-c2c(C(=O)O)[nH]c(-c3cccc4[nH]ccc34)c2C(C)C)cc1N [compound 5] too.
a: < 20 µM

q: Field entry: COc1cnc2[nH]ccc2c1-c1c(C(=O)O)[nH]c(-c2cc(F)cc3[nH]ccc23)c1C(C)C [compound 247]
a: < 20 µM

q: Again, but for CC(C)c1c(-c2cc(F)cc3[nH]ccc23)[nH]c(C(=O)O)c1-c1cccc2c1ccn2CCS(N)(=O)=O [compound 266]
a: < 20 µM

q: CCC(C)c1c(-c2cc(F)cc3[nH]ccc23)[nH]c(C(=O)O)c1-c1cc(OC)cc2[nH]ccc12 (centres unmarked) [compound 171] , same question.
a: < 20 µM

q: Then this molecule: COc1ccc(C)cc1-c1ccc(C(=O)O)[nH]1 [compound 137]
a: > 100 µM

Sourced from patent US12466813B2
